- System: 429239-143-T-J1-PDC complex spheroid viability
- assayRemarks: Anticancer human tumor 429239-143-T-J1-PDC patient-derived small cell lung carcinoma cell line growth inhibition [POLQ]
- assayContext: second compound 10 µM; first compound 0.001 µM; active compounds read low
The compounds listed here are annotated with their viability, T/C.
Give a bare numeral; the unit % is implied.

Below are worked cases with known answers.
{"columns": ["compound", "viability, T/C (%)"],
 "data": [
  ["Cn1ncnc1[C@H]1c2n[nH]c(=O)c3cc(F)cc(c23)N[C@@H]1c1ccc(F)cc1 + Cc1cccc(N(C)C(=O)C2C(O)CCN2c2nc(C)cc(C(F)(F)F)c2C#N)c1", 86.1],
  ["CC[C@@]1(O)C(=O)OCc2c1cc1n(c2=O)Cc2cc3c(CN(C)C)c(O)ccc3nc2-1 + COC1C(OC(N)=O)C(O)C(Oc2ccc3c(O)c(NC(=O)c4ccc(O)c(CC=C(C)C)c4)c(=O)oc3c2C)OC1(C)C", 103]
]}

Attention now turns to another entry.
According to the records, this compound CC[C@@]1(O)C(=O)OCc2c1cc1n(c2=O)Cc2cc3c(CN(C)C)c(O)ccc3nc2-1 + Cc1cccc(N(C)C(=O)C2C(O)CCN2c2nc(C)cc(C(F)(F)F)c2C#N)c1 displays viability, T/C of 96.2

* * *

- System: 429239-143-T-J1-PDC complex spheroid viability
- assayRemarks: Anticancer human tumor 429239-143-T-J1-PDC cell line growth inhibition [POLQ];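 also: luminescence signal used as surrogate measure of viable cells; spheroids exposed to compounds for seven days before readout; 100% = DMSO vehicle control viability as luminescence relative to vehicle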
- assayContext: second compound 0.0316 µM; first compound 0.1 µM; active compounds read low
- Method: Multicellular complex tumor spheroid response to Polymerase (POL) inhibitors (novobiocin, ART-558, RP6685) in combination with a variety of drugs and investigational agents in selected tumor cell lines The POL inhibitors (novobiocin, ART-558, and RP6685) were evaluated both individually and in combination with standard of care and investigational anticancer small molecules within a complex spheroid model of solid tumors. . […]
parameterMeasured: viability, T/C (%)
Give a bare numeral; the unit % is implied.

{"columns": ["molecule", "unitsSymbol", "testValue"],
 "data": [
  ["COc1cccc(OCCCN)c1-c1cc(Nc2cnc(C#N)cn2)n[nH]1 + Nc1ccc(C#CCN(C(=O)Cc2ncc(C(F)(F)F)cc2C(F)(F)F)c2ccc(F)cc2)nn1", "%", 72.7]
]}

According to the records, this molecule CNCc1ccc(-c2[nH]c3cc(F)cc4c3c2CCNC4=O)cc1 + Cc1cccc(N(C)C(=O)C2C(O)CCN2c2nc(C)cc(C(F)(F)F)c2C#N)c1 displays viability, T/C of 83.8

According to the records, this molecule CCCS(=O)(=O)Nc1ccc(F)c(C(=O)c2c[nH]c3ncc(-c4ccc(Cl)cc4)cc23)c1F + Cc1cccc(N(C)C(=O)C2C(O)CCN2c2nc(C)cc(C(F)(F)F)c2C#N)c1 displays viability, T/C of 106

* * *

- Tested on: 429239-143-T-J1-PDC complex spheroid viability
- assayRemarks: Anticancer human tumor 429239-143-T-J1-PDC cell line growth inhibition [POLQ];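 also: luminescence signal used as surrogate measure of viable cells; spheroids exposed to compounds for seven days before readout; 100% = DMSO vehicle control viability as luminescence relative to vehicle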
- assayContext: second compound 0.0316 µM; first compound 0.1 µM; active compounds read low
- Experimental: Multicellular complex tumor spheroid response to Polymerase (POL) inhibitors (novobiocin, ART-558, RP6685) in combination with a variety of drugs and investigational agents in selected tumor cell lines The POL inhibitors (novobiocin, ART-558, and RP6685) were evaluated both individually and in combination with standard of care and investigational anticancer small molecules within a complex spheroid model of solid tumors. . […]
parameterMeasured: viability, T/C (%)
Give a bare numeral; the unit % is implied.

Below are worked cases with known answers.
{"columns": ["compound", "unitsSymbol", "viability, T/C"],
 "data": [
  ["COc1cc(C2c3cc4c(cc3C(OC3OC5COC(C)OC5C(O)C3O)C3COC(=O)C23)OCO4)cc(OC)c1O (stereo unspecified) + COC1C(OC(N)=O)C(O)C(Oc2ccc3c(O)c(NC(=O)c4ccc(O)c(CC=C(C)C)c4)c(=O)oc3c2C)OC1(C)C", "%", 81.2],
  ["O=c1[nH]cc(F)c(=O)[nH]1 + Cc1cccc(N(C)C(=O)C2C(O)CCN2c2nc(C)cc(C(F)(F)F)c2C#N)c1", "%", 109],
  ["O=c1[nH]cc(F)c(=O)[nH]1 + Nc1ccc(C#CCN(C(=O)Cc2ncc(C(F)(F)F)cc2C(F)(F)F)c2ccc(F)cc2)nn1", "%", 105],
  ["CNCc1ccc(-c2[nH]c3cc(F)cc4c3c2CCNC4=O)cc1 + COC1C(OC(N)=O)C(O)C(Oc2ccc3c(O)c(NC(=O)c4ccc(O)c(CC=C(C)C)c4)c(=O)oc3c2C)OC1(C)C", "%", 75]
]}

According to the records, this compound C=CCn1c(=O)c2cnc(Nc3ccc(N4CCN(C)CC4)cc3)nc2n1-c1cccc(C(C)(C)O)n1 + Cc1cccc(N(C)C(=O)C2C(O)CCN2c2nc(C)cc(C(F)(F)F)c2C#N)c1 displays viability, T/C of 95.1

According to the records, this compound O=C(c1cc(Cc2n[nH]c(=O)c3ccccc23)ccc1F)N1CCN(C(=O)C2CC2)CC1 + COC1C(OC(N)=O)C(O)C(Oc2ccc3c(O)c(NC(=O)c4ccc(O)c(CC=C(C)C)c4)c(=O)oc3c2C)OC1(C)C displays viability, T/C of 80.8
